Settings: in water, 303.15 K
assay_endpoint: solubility (mole fraction)
API doc: respond with a numeric literal and nothing else, no unit.

Task: Which value of solubility (mole fraction) has been reported for `Cc1cnc(NC(=O)C2=C(O)c3ccccc3S(=O)(=O)N2C)s1` in the records?
Output: 1.19e-06

###

Conditions: in transcutol, 298.15 K
assay_endpoint: solubility (mole fraction)
Form rule: numeric answer, no unit written next to it.

Task: I'd like to know its solubility (mole fraction). The compound in question is `Cc1cnc(NC(=O)C2=C(O)c3ccccc3S(=O)(=O)N2C)s1`
Output: 0.0013

###

Conditions: in water, 313.15 K
assay_endpoint: solubility (mole fraction)
The answer should be written as a number, with no unit following it.

Task: Need solubility (mole fraction) of `Cc1cnc(NC(=O)C2=C(O)c3ccccc3S(=O)(=O)N2C)s1` , thanks.
Output: 1.33e-06

###

Details: in transcutol, 313.15 K
assay_endpoint: solubility (mole fraction)
Please reply with the number alone, leaving off any unit.

Task: Please report the recorded solubility (mole fraction) for `Cc1cnc(NC(=O)C2=C(O)c3ccccc3S(=O)(=O)N2C)s1` .
Output: 0.00165

###

Details: in water, 308.15 K
assay_endpoint: solubility (mole fraction)
Form rule: numeric answer, no unit written next to it.

Task: Which value of solubility (mole fraction) has been reported for `Cc1cnc(NC(=O)C2=C(O)c3ccccc3S(=O)(=O)N2C)s1` in the records?
Output: 1.26e-06

###

Details: in transcutol, 293.15 K
assay_endpoint: solubility (mole fraction)

Task: Which solubility (mole fraction) is reported for this compound? `Cc1cnc(NC(=O)C2=C(O)c3ccccc3S(=O)(=O)N2C)s1`
Output: 0.0012

###

Conditions: in transcutol, 303.15 K
assay_endpoint: solubility (mole fraction)

Task: Bench note: what solubility (mole fraction) did `Cc1cnc(NC(=O)C2=C(O)c3ccccc3S(=O)(=O)N2C)s1` show?
Output: 0.0014

###

Settings: in water, 293.15 K
assay_endpoint: solubility (mole fraction)
Number, no unit, nothing else.

Task: Give its solubility (mole fraction) value. Item: `Cc1cnc(NC(=O)C2=C(O)c3ccccc3S(=O)(=O)N2C)s1`
Output: 1.09e-06

###

Details: in water, 298.15 K
assay_endpoint: solubility (mole fraction)
Lab note: write the figure by itself, no unit.

Task: For the compound shown here, `Cc1cnc(NC(=O)C2=C(O)c3ccccc3S(=O)(=O)N2C)s1` , give the reported solubility (mole fraction).
Output: 1.14e-06
